# Test system: SK-OV-3
# Method Description: NCI tumour cell line growth inhibition, 48 h
Active and inactive are the calls of the source. Cut-off read from the data, not from the text of the source: active = GI50 up to about 1.1 µM and inactive = higher. Non-standard residues stand in square brackets, D forms with d. Residues, ends and D or L forms follow the SMILES beside them.
Quantity Kind: GI50

C=CCNC(=S)N/C=C(/C(C)=O)C(=O)Nc1ccccc1C: > 100 µM (inactive)
Cc1ccc(F)cc1NC(=O)O/N=C(\Cl)C(C)C: 20.2 µM (inactive)
CSCC[C@H](NC(=O)[C@@H](N)CC(N)=O)C(=O)N[C@@H](Cc1c[nH]c2ccccc12)C(=O)N[C@@H](CCC(N)=O)C(=O)N[C@@H](CCC(=O)O)C(=O)N[C@H](C(=O)NCC(=O)N[C@@H](CCCCN)C(=O)N[C@H](C)C(=O)O)C(C)C (H-NMWQEVGK[dA]-OH): > 100 µM (inactive)
CCC12CCCNC1c1c(n(C)c3ccccc13)C(C(=O)OC)C2 (stereo not given): 46.9 µM (inactive)
O=C(O)CCNCCCNCCC(=O)O: > 100 µM (inactive)

Prompt line: Report the value of GI50 obtained on SK-OV-3 for Cc1csc(-n2c(C)nc3cc(Cl)ccc3c2=O)n1 .
Response line: > 100 µM (inactive)

Prompt line: Report the value of GI50 obtained on SK-OV-3 for CC(=O)Nc1ccc(Nc2nc(=O)[nH]c(=O)[nH]2)cc1 .
Response line: > 100 µM (inactive)

Prompt line: Report the value of GI50 obtained on SK-OV-3 for COC(=O)C1CCC[C@H]2C(CO)=C(C)C(=O)[C@@H]12 (stereo not given in full) .
Response line: > 100 µM (inactive)

Prompt line: Report the value of GI50 obtained on SK-OV-3 for N/C(=N\Nc1nc2cc([N+](=O)[O-])ccc2o1)c1ccccn1 .
Response line: 0.403 µM (active)

Prompt line: Report the value of GI50 obtained on SK-OV-3 for C/C(=N\NS(=O)(=O)c1ccc(C)cc1)P(=O)(O)O .
Response line: > 100 µM (inactive)

Prompt line: Report the value of GI50 obtained on SK-OV-3 for Nc1ccc(/C=C/c2ccc3cccnc3c2)cc1 .
Response line: > 100 µM (inactive)

Prompt line: Report the value of GI50 obtained on SK-OV-3 for COC(=O)[C@H](CC(C)C)NC1=C(Cl)C(=O)c2c(O)ccc(O)c2C1=O .
Response line: > 10 µM (inactive)

Prompt line: Report the value of GI50 obtained on SK-OV-3 for Cc1cc(S(=O)(=O)NC2=NNC(C)CN2)c(S)cc1Cl (stereo not given) .
Response line: > 100 µM (inactive)

Prompt line: Report the value of GI50 obtained on SK-OV-3 for CSc1ncnc2c1cnn2Cc1cnnn1COCC(O)CO (stereo not given) .
Response line: > 100 µM (inactive)

Prompt line: Report the value of GI50 obtained on SK-OV-3 for N#C/N=C(/N)NCO .
Response line: > 100 µM (inactive)

----------
# Tested on: NCI-H23
# Method Description: NCI tumour cell line growth inhibition, 48 h
Activity calls are given as the source filed them. Cut-off read from the data, not from the text of the source: active = GI50 up to about 1.1 µM and inactive = higher.
Quantity Kind: GI50

COc1cc2cc3c4c(cc(OC)c(OC)c4c2cc1OC)CCN3C(=O)CCC(=O)O: > 100 µM (inactive)
COC(=O)/C(=N/O)C(C(=O)OC)C(=O)C(=O)Nc1c(Cl)cc(C)cc1S(=O)(=O)O (stereo unspecified): > 100 µM (inactive)
Nc1ccc(/C=C/c2ccc3cccnc3c2)cc1: > 100 µM (inactive)

Prompt line: Give reported GI50 value for COc1ccc2nc3cc(Cl)ccc3c(NCCC(=O)OCC(O)C(O)C(O[C@H](C)C(=O)NC(C)C(=O)NC(CCC(N)=O)C(=O)OCc3ccccc3)C(C=O)NC(C)=O)c2c1 (stereo partly specified)
Response line: 14.4 µM (inactive)

Prompt line: Give reported GI50 value for N#C/N=C(/N)NCO
Response line: > 100 µM (inactive)

Prompt line: Give reported GI50 value for CCCN(CCC)C(=S)N/N=C/c1ccccn1
Response line: < 0.01 µM (active)

Prompt line: Give reported GI50 value for O=C(NCCN1CCOCC1)c1cn2c(ccc3sc4ccccc4c(=O)c32)n1
Response line: 20.7 µM (inactive)
